tested on: MS2 coat protein; assay: apparent KD of MS2 coat protein; higher = weaker reporter binding; conditions: Eterna round: R107; input ligand: theophylline 20 uM
Outcome label depends on apparent KD of MS2 coat protein relative to 30 nM: at/above gives Met, below gives Not met.

These solved cases illustrate the format of a correct answer.
>  <Primary Sequence>
AGUGUAUCCAUCGAUACCAGCCACCACCGAUAGACCACAUGAGGAUCACCCAUGUUGGGUGGCCCUUGGCAGCGGUGGCUGUGUA [Same State - Theophylline B Attempt #2 (HarryS)]

>  <Category Label>
Met

$$$$
>  <Primary Sequence>
CUCCUGGGAGCGGCCGCCACUGGAGGCCUCGCGCGACAUGAGGAUCACCCAUGUUGGCCCGGCCUCAGGACCGGGUUCGCGCGAG [Same State - Tryptophan B Attempt #3]

>  <Category Label>
Not met

$$$$
>  <Primary Sequence>
AGCGACAUGCGUGAUACCAGCUACAUGAGGAUCACCCAUGUCAGUAGGAAACUACUGUGUAGCCCUUGGCAGCACAGUGCAUGUC [Exclusion - Theophylline B (Freestyle 26)]

>  <Category Label>
Met

$$$$

Please indicate if the recorded apparent KD of MS2 coat protein for AGAUGAGUCACGGCCGCCACUCUUAUCAGGAUCACCCAUGGUUAACAUGAGGAUCACCCAUGUCUGAGGACCGGGUGAUGAGCAU [XTryp B #2] meets or exceeds 30 nM. Met

Hi, just wondering whether UUAAAGGCACCUCAUGGGACUAUAAACCCGCGAGGACCGGUACGGCCGCCACUCGAAUAUCAACAUGAGGAUCACCCAUGUGGUU [theeternabot_exclusion_MS2_Trp_A_6] shows apparent KD of MS2 coat protein of 30 nM or higher. Met

# bool: apparent KD of MS2 coat protein of ACGUCUCGUUUACUCGUGGGUUAGCUCGAUACCAGUAUUCAAACUUACCCUUGGCAGCGACAUGAGGAUCACCCAUGUGCGAAGA [XTheo A #23] >= 30 nM Not met
